Answer each item with its documented residual activity.
Biological target: UniProt Q9NPD5
Sequence (Q9NPD5 whole entry): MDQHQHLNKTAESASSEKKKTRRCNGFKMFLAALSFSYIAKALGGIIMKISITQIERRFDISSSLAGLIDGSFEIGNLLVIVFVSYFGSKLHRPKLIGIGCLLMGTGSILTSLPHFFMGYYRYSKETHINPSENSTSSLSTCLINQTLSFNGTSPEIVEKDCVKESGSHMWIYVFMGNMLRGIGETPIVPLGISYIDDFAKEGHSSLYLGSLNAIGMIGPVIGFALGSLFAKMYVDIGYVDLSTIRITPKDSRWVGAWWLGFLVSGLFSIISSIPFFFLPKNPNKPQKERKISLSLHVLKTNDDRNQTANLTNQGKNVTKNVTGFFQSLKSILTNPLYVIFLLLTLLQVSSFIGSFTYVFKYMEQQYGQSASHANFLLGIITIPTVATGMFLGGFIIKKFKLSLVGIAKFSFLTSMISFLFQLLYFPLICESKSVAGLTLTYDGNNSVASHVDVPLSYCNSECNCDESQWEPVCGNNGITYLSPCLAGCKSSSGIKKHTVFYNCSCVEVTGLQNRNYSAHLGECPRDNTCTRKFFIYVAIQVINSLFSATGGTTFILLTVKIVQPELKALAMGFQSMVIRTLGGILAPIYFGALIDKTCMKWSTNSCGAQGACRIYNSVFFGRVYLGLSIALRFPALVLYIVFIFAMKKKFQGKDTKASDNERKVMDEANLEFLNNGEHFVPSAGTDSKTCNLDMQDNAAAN
Conditions: chinese hamster, cho, 10 µM
Write the answer as a number in %, unit excluded.

Consider the molecule shown here: Cc1ccc(C(=O)c2ccc(CC(=O)[O-])n2C)cc1.[Na+] [TOLMETIN SODIUM] What is its recorded residual activity? 90.31

Moving on to Clc1ccccc1C(c1ccccc1)(c1ccccc1)n1ccnc1 105.9

Moving on to C[C@]12CCC(=O)C=C1CC[C@@H]1[C@@H]2[C@@H](O)C[C@@]2(C)[C@H]1CC[C@]2(O)C(=O)COC(=O)CCC(=O)O [HYDROCORTISONE HEMISUCCINATE ANHYDROUS] 101.8

Moving on to CC(=O)N[C@@H](CCC(=O)O)C(=O)O 77.8
